tested on: human PPARγ2 (Homo sapiens)
Construct: the amino acids 182 to 505 of human PPARγ2; expressed in transfected cells; host or cells: COS7 cells (African green monkey kidney)
Sequence (P37231 182-505): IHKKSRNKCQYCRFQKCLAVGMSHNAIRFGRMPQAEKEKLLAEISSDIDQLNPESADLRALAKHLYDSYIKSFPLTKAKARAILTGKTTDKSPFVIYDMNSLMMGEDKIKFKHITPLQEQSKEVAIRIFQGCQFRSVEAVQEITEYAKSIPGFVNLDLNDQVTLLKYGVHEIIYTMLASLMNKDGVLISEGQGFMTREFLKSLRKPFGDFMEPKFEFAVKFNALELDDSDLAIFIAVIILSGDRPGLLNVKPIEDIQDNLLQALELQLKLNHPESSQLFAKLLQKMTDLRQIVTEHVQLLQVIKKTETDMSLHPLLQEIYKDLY
test name: PPARγ activation activity, Gal4-PPARγ2 LBD luciferase transfection assay using COS7 cells
Type: cell-based
condition: Gal4-human PPARγ2 LBD chimera, 16 hours, rosiglitazone = 100%
pEC50: −log10 of the molar value.
The label depends only on pEC50: Criterion met if it is at least 6, Criterion not met if it is smaller.

Reference set, count: 6
smiles entry: CCCCc1nc(C2CC2)n(-c2ncc(OC)cn2)c(=O)c1Cc1ccc(-c2ccccc2-c2noc(=O)[nH]2)nc1
assigned category: Criterion not met
--
smiles entry: CCCCc1nc(C2CCCC2)n(-c2ncc(OCC)cn2)c(=O)c1Cc1ccc(-c2ccccc2-c2noc(=O)[nH]2)nc1
assigned category: Criterion met
--
smiles entry: CCCCc1nc(C(C)C)n(-c2ncc(OCC)cn2)c(=O)c1Cc1ccc(-c2ccccc2-c2noc(=O)[nH]2)nc1
assigned category: Criterion met
--
smiles entry: CCCCc1nc(CC)n(-c2ncc(OC)cn2)c(=O)c1Cc1ccc(-c2ccccc2-c2noc(=O)[nH]2)nc1
assigned category: Criterion not met
--
smiles entry: CCCCc1nc(C)n(-c2cc(C)ccn2)c(=O)c1Cc1ccc(-c2ccccc2-c2noc(=O)[nH]2)nc1
assigned category: Criterion not met
--
smiles entry: CCCCc1nc(C)n(-c2ncc(OCC)cn2)c(=O)c1Cc1ccc(-c2ccccc2-c2noc(=O)[nH]2)nc1
assigned category: Criterion not met

Textbook exercise: given the entry CCCCc1nc(C)n(-c2ncc(C(F)(F)F)cc2Cl)c(=O)c1Cc1ccc(-c2ccccc2-c2nnn[nH]2)cn1 , state whether its pEC50 is greater than or equal to 6.
Criterion not met

====

tested on: angiotensin II type 1 receptor (Oryctolagus cuniculus, UniProt P34976)
Construct: By using a specimen of isolated rabbit blood vessels; from tissue; host or cells: rabbit (New Zealand White) thoracic aorta ring
Sequence (P34976 1-359): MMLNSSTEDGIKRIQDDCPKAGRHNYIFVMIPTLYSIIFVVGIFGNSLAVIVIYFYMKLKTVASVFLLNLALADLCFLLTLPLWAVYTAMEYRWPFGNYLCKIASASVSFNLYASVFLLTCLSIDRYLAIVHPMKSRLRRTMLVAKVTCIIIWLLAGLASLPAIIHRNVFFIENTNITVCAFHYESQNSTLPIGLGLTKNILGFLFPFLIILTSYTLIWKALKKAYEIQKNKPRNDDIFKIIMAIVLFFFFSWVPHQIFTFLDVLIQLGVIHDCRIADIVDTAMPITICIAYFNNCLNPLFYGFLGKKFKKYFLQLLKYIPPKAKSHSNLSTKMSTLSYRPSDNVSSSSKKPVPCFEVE
test name: Angiotensin II receptor antagonistic activity in isolated rabbit blood vessels (thoracic aorta ring, angiotensin II-induced contraction)
Format: cell-based
condition: 0.1 μM test compound, angiotensin II (10 nM)-induced contraction, read-out: Angiotensin II activity inhibitiom rate (%) at 0.1 μM concentration
// reported inhibition at 0.1 µM per item

Past entries and their recorded results:
smiles entry: CCCCc1nc(C)n(-c2ncc(OCCSC)cn2)c(=O)c1Cc1ccc(-c2ccccc2-c2noc(=O)[nH]2)nc1
inhibition at 0.1 µM: 86.5%

smiles entry: CCCCc1nc(C)n(-c2ncc(OCC)cn2)c(=O)c1Cc1ccc(-c2ccccc2-c2nnn[nH]2)nc1
inhibition at 0.1 µM: 90.8%

Supply reported inhibition at 0.1 µM belonging to this compound: CCCCc1nc(C)n(-c2ncc(OCC)cn2)c(=O)c1Cc1ccc(-c2ccccc2-c2noc(=O)[nH]2)nc1
52.1%

Supply reported inhibition at 0.1 µM belonging to this compound: CCCCc1nc(C)n(-c2ncc(OCCSC)cn2)c(=O)c1Cc1ccc(-c2ccccc2-c2nnn[nH]2)nc1
100%

Supply reported inhibition at 0.1 µM belonging to this compound: CCCCc1nc(C)n(-c2ccccn2)c(=O)c1Cc1ccc(-c2ccccc2-c2noc(=O)[nH]2)nc1
59.3%

Supply reported inhibition at 0.1 µM belonging to this compound: CCCCc1nc(C)n(-c2ncc(OC)cn2)c(=O)c1Cc1ccc(-c2ccccc2-c2noc(=O)[nH]2)nc1
72.9%

====

tested on: human PPARγ2 (Homo sapiens)
Construct: the amino acids 182 to 505 of human PPARγ2
Sequence (P37231 182-505): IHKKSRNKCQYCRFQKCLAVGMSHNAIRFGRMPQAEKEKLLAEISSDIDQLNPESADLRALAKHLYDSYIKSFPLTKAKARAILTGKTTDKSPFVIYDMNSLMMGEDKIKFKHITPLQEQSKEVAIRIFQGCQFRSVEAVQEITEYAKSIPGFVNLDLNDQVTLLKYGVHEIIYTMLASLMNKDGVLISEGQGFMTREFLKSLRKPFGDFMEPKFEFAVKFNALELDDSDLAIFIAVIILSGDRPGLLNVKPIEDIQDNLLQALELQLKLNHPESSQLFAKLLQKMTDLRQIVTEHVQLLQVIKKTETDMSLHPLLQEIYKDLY
test name: PPARγ activation activity, Gal4-PPARγ2 LBD luciferase transfection assay using COS7 cells
condition: Gal4-human PPARγ2 LBD chimera, 16 hours, rosiglitazone = 100%
Procedure: The agonistic activity of the compounds of the invention on PPARγ was measured based on the transfection assay using COS7 cells (DS Pharma Biomedical Co., Ltd., Osaka, Japan), which are the cell line derived from the kidney of the African green monkey. COS7 cells were cultured under 5% CO2 concentration, and DMEM medium containing 10% fetal bovine serum, glutamic acid, and antibiotics was used as a medium. […]
recorded metric: EC50 (nM)
Enter your answer as a number in nM; do not include the unit.

Past entries and their recorded results:
smiles entry: CCCCc1nc(CC)n(-c2ncc(OCC)cn2)c(=O)c1Cc1ccc(-c2ccccc2-c2noc(=O)[nH]2)nc1
tested on: human PPARγ2 (Homo sapiens)
measured result: 1500

smiles entry: CCCCc1nc(C2CC2)n(-c2ncc(OCC)cn2)c(=O)c1Cc1ccc(-c2ccccc2-c2noc(=O)[nH]2)nc1
tested on: human PPARγ2 (Homo sapiens)
measured result: 760

Supply reported EC50 belonging to this molecule: CCCCc1nc(C(C)C)n(-c2ncc(OC)cn2)c(=O)c1Cc1ccc(-c2ccccc2-c2noc(=O)[nH]2)nc1
850

Supply reported EC50 belonging to this molecule: CCCCc1nc(C(C)C)n(-c2ncc(OCC)cn2)c(=O)c1Cc1ccc(-c2ccccc2-c2nnn[nH]2)nc1
1360

Supply reported EC50 belonging to this molecule: CCCCc1nc(C2CCC2)n(-c2ncc(OC)cn2)c(=O)c1Cc1ccc(-c2ccccc2-c2noc(=O)[nH]2)nc1
1460

Supply reported EC50 belonging to this molecule: CCCCc1nc(C2CCCCC2)n(-c2ncc(OCC)cn2)c(=O)c1Cc1ccc(-c2ccccc2-c2noc(=O)[nH]2)nc1
670

Supply reported EC50 belonging to this molecule: CCCCc1nc(C2CCC2)n(-c2ncc(OCC)cn2)c(=O)c1Cc1ccc(-c2ccccc2-c2noc(=O)[nH]2)nc1
820
